# System: c-myc in 22RV-1 cells
# EXPERIMENT: Human c-myc ELISA assay
# Assay type: cell-based
# CONDITION CONTEXT: Homo sapiens, 22Rv1, 18 h, read-out: Degradation of BRD4: Maximum inhibition (%) c-Myc ELISA in 22RV1 cells
Some molecules, each annotated with its measured Emax.

SMILES STRING	Emax
Cc1ncoc1-c1ccc(CNC(=O)[C@@H]2C[C@@H](O)CN2C(=O)[C@@H](C(C)C)n2cc(-c3ccnc(O[C@H]4C[C@@H](NC(=O)C[C@@H]5N=C(c6ccc(Cl)cc6)c6c(sc(C)c6C)-n6c(C)nnc65)C4)c3)cn2)cc1	43.4%
Cc1ncsc1-c1ccc([C@H](C)NC(=O)[C@@H]2C[C@@H](O)CN2C(=O)[C@@H](NC(=O)c2cc3ccc(O[C@H](C)CNC(=O)C[C@@H]4N=C(c5ccc(Cl)cc5)c5c(sc(C)c5C)-n5c(C)nnc54)cc3o2)C(C)(C)C)cc1	99%
Cc1ncsc1-c1ccc(CNC(=O)[C@@H]2C[C@@H](O)CN2C(=O)[C@@H](NC(=O)Cc2cccc(OCCCNC(=O)C[C@@H]3N=C(c4ccc(Cl)cc4)c4c(sc(C)c4C)-n4c(C)nnc43)c2)C(C)(C)C)cc1	96%
Cc1ncsc1-c1ccc(CNC(=O)[C@@H]2C[C@@H](O)CN2C(=O)[C@@H](NC(=O)CCc2ccc(OCCNC(=O)C[C@@H]3N=C(c4ccc(Cl)cc4)c4c(sc(C)c4C)-n4c(C)nnc43)nc2)C(C)(C)C)cc1	98%
